# Test system: Plasmodium berghei
# assay_notes: Screen against P. berghei liver stage (PbLuc), transformed with Luciferase, at 2uM
# Format: functional, HepG2
# condition_context: tested at 2 uM
In all, about 68,000 compounds went through this assay and about 2,700 (4%) showed an effect of 50% or more. The full list was thinned out, with strong results kept by preference.

| molecule | INHIBITION [%] |
| --- | --- |
| Fc1cccc(C2(CNC3CCOC4(CCOCC4)C3)CCOCC2)c1 (centres undefined) | -8.87 |
| O=C(C1CCCC1)N1C[C@@H]2CCN(c3cccnc3)C[C@@H]2C1 | -3.25 |
| Cc1ccsc1CNCc1c(C(C)C)nn(C)c1N1CCOCC1 | -28.5 |
| CC(C)CN(C)Cc1nc2c(cnn2C)c(=O)[nH]1 | -29.44 |
| O=C(c1ccc(F)cc1)N1C[C@@H]2COC[C@]2(COc2cccnc2)C1 | -55.8 |
| CCn1[nH]c(C)c2c(C(F)(F)C(F)(F)F)cc(=O)nc1-2 | 1.01 |
| Cc1c(C)n2c(SCC(=O)N3CCOCC3)nnc2[nH]c1=O | 33.59 |
| CN(Cc1nc2c(cnn2C)c(=O)[nH]1)Cc1ccco1 | 27.5 |
| OC[C@H]1CN(Cc2c(Cl)cncc2Cl)C[C@H]1CN1CCCC1 | 72.91 |
| CCC(C)N(CCOC)Cc1nc2c(cnn2C)c(=O)[nH]1 (centres undefined) | 29.19 |
| COCCN(Cc1nc2c(cnn2C)c(=O)[nH]1)C(C)c1ccccc1 (centres undefined) | 68.24 |
| CN(Cc1ccc(Cl)s1)C(=O)COc1cccc(C(N)=O)c1 | 34.61 |
| NC(=O)NCC(=O)N1CCCC(c2nccn2Cc2ccncc2)C1 (centres undefined) | 16.1 |
| CN(Cc1ccc(Cl)s1)C(=O)c1cccc(OCC(N)=O)c1 | 26.14 |
| CCN(Cc1nc2c(cnn2C)c(=O)[nH]1)Cc1ccco1 | 53.98 |
| Cc1cc(C)cc(OCCN2CCn3c(C)nnc3C2)c1 | 20.41 |
| CCOCCN1CCn2c(C)nnc2C1 | 58.53 |
| COCCN(Cc1nc2c(cnn2C)c(=O)[nH]1)C(C)COC (centres undefined) | 20.57 |
| CCc1nc(N2CCCN(c3ncccn3)CC2)c2cnn(C)c2n1 | 29.53 |
| Cc1cc(C)n(CC2(CNC(=O)C(c3ccc(F)cc3)N(C)C)CC2)n1 (centres undefined) | -4.04 |
| O=C(c1cccs1)N1CCC(n2nc(-c3ccco3)ccc2=O)CC1 | 38.1 |
| CCCc1nc(N2CCCN(c3ncccn3)CC2)c2cnn(C)c2n1 | 17.73 |
| CN(Cc1cccc(OCCO)c1)Cc1cccc2ncccc12 | 37.5 |
| Cc1nnc2n1CCN(CCOc1ccccc1)C2 | -55.52 |
